Assay: Decomposition reaction under chemical conditions (half life in buffer solution of pH 7.4, HPLC)
Assay type: physicochemical
Details: ph 7.4 buffer/dma, pH 7.4 buffer / N,N-dimethylacetamide 50 v/v%, 37° C., * Average of the half lives of the diastereomers, read-out: Half life (t1/2), average of the half lives of the diastereomers (converted)
measurement.kind: half-life at 5 µM (h)
One number for each entry, in h.

{"columns": ["compound", "half-life at 5 µM, h"],
 "data": [
  ["COC(=O)c1c(C(F)(F)F)[nH]c2c(OC(=O)N3CCN(C)CC3CCO)cc3c(c12)[C@H](CCl)CN3C(=O)c1cc2cc(NC(=O)c3cc4cccc(OC)c4o3)ccc2[nH]1 (stereo partly shown)", 5.8]
]}

For every item in the list below, what is its measured half-life at 5 µM?
1. COC(=O)c1c(C(F)(F)F)[nH]c2c(OC(=O)N3CCN(C)CC3CO)cc3c(c12)[C@H](CCl)CN3C(=O)c1cc2cc(NC(=O)c3cc4cccc(OC)c4o3)ccc2[nH]1 (stereo partly shown)
2. COC(=O)c1c(C(F)(F)F)[nH]c2c(OC(=O)N3CCOCC3CO)cc3c(c12)[C@H](CCl)CN3C(=O)c1cc2cc(NC(=O)c3cc4cccc(OC)c4o3)ccc2[nH]1 (mixture of isomers)

1: 1.7; 2: 1.7
